- EXPERIMENTAL DETAILS: Oral bioavailability in rat at 30 umol/kg
- Type: ADME, organism-based
- EXPERIMENTAL PARAMETERS: in vivo, 30 umol/kg
METRIC: bioavailability (%)

[a] CN[C@@H](CC(C)C)C(=O)N[C@@H]1CC[C@H]2CN(S(=O)(=O)c3cccc(C(F)(F)F)c3)C[C@H]21
[b] CC(C)C[C@H](N)C(=O)N[C@@H]1CC[C@H]2CN(S(=O)(=O)c3cccc(C(F)(F)F)c3)C[C@H]21
[c] CC(C)C[C@@H](C(=O)N[C@@H]1CC[C@H]2CN(S(=O)(=O)c3cccc(C(F)(F)F)c3)C[C@H]21)N(C)C
Reorder the items by bioavailability, least to greatest. Give your ranking as a list of the labels in the requested order.
b, c, a
(b: 0%, c: 0.8%, a: 10.5%)
